# subject of test: Torsin-1A (Homo sapiens) (UniProt O14656)
# Sequence (O14656 whole entry, looked up): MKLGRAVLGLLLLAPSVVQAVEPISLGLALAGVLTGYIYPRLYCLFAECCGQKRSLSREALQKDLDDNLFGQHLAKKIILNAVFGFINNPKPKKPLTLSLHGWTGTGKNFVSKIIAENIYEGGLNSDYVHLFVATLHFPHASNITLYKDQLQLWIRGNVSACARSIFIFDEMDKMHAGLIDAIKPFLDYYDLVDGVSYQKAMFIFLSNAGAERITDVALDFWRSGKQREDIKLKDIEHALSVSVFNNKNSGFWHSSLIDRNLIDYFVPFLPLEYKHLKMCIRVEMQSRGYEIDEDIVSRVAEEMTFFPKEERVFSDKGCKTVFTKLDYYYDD
# test name: torsin A binders from cell lysate, primary screen, small-molecule microarray, wild-type, 635/667 nm (AID 1149)
# run parameters: COS7 hTOR1A-WT lysate, 635 nm fluorescence, higher = more signal
Decision: composite z-score >= 0.5 yields satisfied, all other cases yield not satisfied.

> print(dat)
                                    compound  assigned.label
 1  CCOC(=O)NN=C1C[C@@H](O)[C@@H](O)[C@@H]2[C@@H]3C(=O)N(CC)C(=O)[C@@H]3CC[C@@H]12   not satisfied
 2    CC(C)=NOCc1cccc(-c2cc(-c3ccccc3)no2)c1       satisfied
 3  CCCC[C@@H]1C[C@H]1[C@@H](NS(=O)(=O)c1cccc2cccnc12)c1ccc(-c2ccccc2)cc1   not satisfied
 4  CC=CC1=C(CO)[C@H](O)[C@H]2O[C@H]2[C@H]1O       satisfied
 5  C[C@@H]1C=CCC(=O)OC[C@H](C)C(=O)OC[C@H]2O[C@H]1C=C[C@H]2O   not satisfied
 6  COCCOC(=O)N1C(=O)[C@@]2(c3ccccc31)[C@H](C(N)=O)[C@H]1C(=O)O[C@H](c3ccccc3)[C@H](c3ccccc3)N1[C@@H]2c1ccccc1OCCO       satisfied
 7  CCCCc1nc2c(c3c1C[C@H](C)OC3)CN(CCC(C)C)CC2       satisfied
 8  Cn1c(=O)n2n(c1=O)[C@H]1[C@H](O)[C@@H]3O[C@@H]3C(=NOC[C@@H](O)COCc3ccco3)[C@H]1CC2       satisfied
 9  CCOC(=O)CCN1C(=O)[C@H]2[C@H]3[C@H](O)[C@H](O)CC(=NOC[C@@H](O)COCc4ccco4)[C@H]3CC[C@H]2C1=O   not satisfied
10  O=C1[C@H]2[C@H]3[C@H](O)[C@H](O)CC(=NOCc4ccccc4)[C@@H]3CC[C@H]2C(=O)N1Cc1ccccc1   not satisfied
11  CCCNC(=O)OC[C@H]1O[C@H](CCON=CC[C@@H]2C=C[C@H](OC(C)=O)[C@@H](COC(C)=O)O2)C=C[C@@H]1Oc1ccc(OC)cc1   not satisfied
12  CN(C)C(=O)[C@@]1(Cc2ccccc2)N=C(c2ccc(OCCCO)cc2)O[C@H]1c1ccccc1CN=[N+]=[N-]       satisfied
13  COC(=O)[C@H](C)NC(=O)CCC1CC(OC(=O)NCc2ccc3c(c2)OCO3)CC2(CCCC(COC(=O)NCCOc3ccccc3)O2)O1 (stereo partly specified)   not satisfied
14  O=C1C[C@@H](O)[C@@H](O)[C@@H]2[C@@H]3C(=O)N(Cc4ccc5c(c4)OCO5)C(=O)[C@@H]3CC[C@@H]12       satisfied
15  C/C=C\[C@@H](NCc1ccccc1Br)[C@@H](O)Cc1ccccc1   not satisfied
